System: ACHN renal
Test: NCI-60 one-dose screen, 48 h
Details: 10 µM unless noted
About 83,000 compounds went through this panel and 20% of them were active in at least one assay; those are over-represented in the sample as a whole. The source made the active and inactive calls. The calls were made as follows: active = growth percent below 10; inactive = the rest.
Classes used: Yes = active, No = inactive

# COMPOUND, LABEL VALUE
measured = [
    ("COCCn1c(-c2csc(-c3cn(C)c4ccc(OC)cc34)n2)cc2cccnc21", "No"),
    ("O=c1oc2ccc([N+](=O)[O-])cc2cc1Br", "No"),
    ("CC1=C(CCC(C)N(C)Cc2ccc(OCCCN3CCCC3)cc2)C(C)(C)CCC1 (stereo unspecified)", "No"),
    ("O=C1/C(=C/c2ccc(F)cc2)COc2ccc(O)c(O)c21", "Yes"),
    ("COc1ccc2cc(-c3ccc(NC(C)=O)c(=O)o3)ccc2c1", "No"),
    ("Brc1ccc(-n2cc(-c3nn[nH]n3)c(-c3cccs3)n2)cc1", "No"),
    ("O=C(CSc1nc(-c2ccccc2)[nH]c1S(=O)(=O)c1ccccc1)NC1CC1", "No"),
    ("CCSc1nc(NC)c2cc(-c3ccc(C(F)(F)F)cc3)ccc2n1", "No"),
    ("C=C1CC[C@@H]2[C@](C)(COC(C)=O)[C@H](OC(C)=O)CC[C@@]2(C)[C@@H]1CC(Sc1ccccc1)C1=CCOC1=O (stereo partly specified)", "Yes"),
    ("CC(=O)N1N=C(c2ccc(Nc3nc(Nc4ccc(Cl)cc4)nc(Nc4ccc(Cl)cc4)n3)cc2)CC1c1ccco1 (stereo unspecified)", "No"),
    ("CCCc1cc(NC)nc(S(=O)(=O)CC)n1", "No"),
    ("C=CCn1c(SCC(=O)Nc2ccc(C(=O)/C=C/c3ccc(Cl)cc3)cc2)nnc1-c1cc(-c2ccc(S(N)(=O)=O)cc2)nc2ccccc12", "No"),
    ("COCCNC(=O)c1ccc(-c2nc3ccc4[nH]ncc4c3c3c2CCCC3)cc1", "No"),
    ("O=S(=O)(Nc1ccc(Cl)cc1)c1ccc(-c2cnc(C3CC3)o2)cc1", "No"),
    ("Cn1c(O)c(C=NCCN=Cc2c(O)n(C)c(=O)n(C)c2=O)c(=O)n(C)c1=O", "No"),
    ("Cc1cc(N)c2cc(NC(=O)/C=C\\c3ccccc3Cl)ccc2n1", "Yes"),
    ("Cc1ccc2c(n1)C(=O)c1[nH]c3ccccc3c1C2=O", "No"),
    ("OCCCC1CCN(C(Cc2ccccc2)c2ccccc2)CC1 (stereo unspecified)", "No"),
    ("Cc1ccc(S(=O)(=O)N2CCCC2CO)cc1 (stereo unspecified)", "No"),
    ("Cc1noc(C)c1C(=O)OCc1coc2ccccc2c1=O", "No"),
    ("COc1ccc2nc(NC(=O)CSc3nnc4n3S(=O)(=O)c3ccccc3N4C)sc2c1", "No"),
]

----------
Test system: HS 578T breast
Assay: NCI-60 one-dose screen, 48 h
Details: 10 µM unless noted
Method: Growth inhibition of the HS 578T human tumor cell line is measured as a screen for anti-cancer activity. Cells are grown in 96 well plates and exposed to the test compound for 48 hours. Compounds are tested at a single concentration, which is 10^-5 M for most compounds. The reported endpoint is percent growth (GI% or GIPRCNT), where numbers from 0 - 100% represent growth inhibition, and numbers from -100% - 0 represent cell death. For example, a value of 40 represents 60% growth inhibition. […]
The panel holds about 83,000 compounds, 20% with a hit somewhere; the sample as a whole holds those more often. Calls of active or inactive are those of the source. The calls were made as follows: active = growth percent below 10; inactive = the rest.
Classes used: YES (active), NO (inactive)

# COMPOUND, STUDY SYSTEM, LABEL VALUE
data = [
    ("CN([O-])c1nc(N(C)[O-])nc(N2CCOCC2)n1.CN([O-])c1nc(N(C)[OH2+])nc(N2CCOCC2)n1.[Fe+3]", "HS 578T breast", "NO"),
    ("O=C(Cc1ccccc1)Nc1nc(O)c(/C=C2\\C(=O)C=Cc3ccccc32)s1", "HS 578T breast", "NO"),
    ("COc1cccc(NC(=O)Cn2cc(CN3CCN(c4ccnc5cc(Cl)ccc45)CC3)nn2)c1", "HS 578T breast", "NO"),
    ("CC(C)(C)n1cc(-c2ccnc(NCCNS(=O)(=O)c3cccc(F)c3)c2)c(-c2ccccc2)n1", "HS 578T breast", "NO"),
    ("O=Nc1c(-c2c(O)[nH]c3ncccc23)[nH]c2ccccc12", "HS 578T breast", "YES"),
    ("CC(C)(C)[Si](C)(C)O[C@H]1C(=O)C=CN2CC=C[C@@H]12", "HS 578T breast", "NO"),
    ("CN[C@]12CC3(C=CC(=O)C=C3)O[C@@]1(Cc1ccc(OC)cc1)N(C)C(=O)N2", "HS 578T breast", "NO"),
    ("CCOC(=O)c1[nH]c(=O)c2c(C)nc(-c3ccccc3)cc2c1O", "HS 578T breast", "NO"),
    ("O=C(c1ccc(Cl)cc1)N1CCN(c2ccnc3cc(Cl)ccc23)CC1", "HS 578T breast", "NO"),
    ("Cc1cccc(N2CCN(CC(O)COc3ccc(Cl)cc3)CC2)c1 (stereo not given)", "HS 578T breast", "NO"),
    ("Cc1ccccc1NC(=O)c1sc2nc(C)c(C(=O)/C=C/c3ccccc3)cc2c1N", "HS 578T breast", "YES"),
    ("Brc1c2c(c(Br)c3ccccc13)CCCC2", "HS 578T breast", "NO"),
    ("COc1ccc(N2CCC(=O)NC2=S)cc1", "HS 578T breast", "NO"),
    ("C[C@]12C=CC(=O)C=C1CCC1C2[C@@H](O)C[C@@]2(C)C1CC[C@]2(O)C(=O)COC(=O)CCC(=O)O (stereo not given in full)", "HS 578T breast", "NO"),
    ("CNC(=O)c1cc(Oc2ccc3nc(NC(C)=O)sc3c2)ccn1", "HS 578T breast", "NO"),
    ("CC1=Nc2cnc(Nc3ccc(OCCN4CCCCC4)cc3)nc2Nc2ccccc21", "HS 578T breast", "NO"),
    ("CCN(CC)CCCN1C(=O)c2c(c(C)c3c(oc4cc(O)ccc43)c2C)C1=O", "HS 578T breast", "NO"),
    ("N#C/C(=C/c1ccc([N+](=O)[O-])cc1)n1nnc2cc(F)c(F)cc21", "HS 578T breast", "NO"),
    ("C=C(C)[C@@H]1CC[C@]2(C(=O)OC)CC[C@]3(C)[C@H](CC[C@@H]4[C@@]5(C)C/C(=C/NC(N)=S)C(=O)C(C)(C)[C@@H]5CC[C@]43C)[C@@H]12", "HS 578T breast", "NO"),
    ("CCCC(=O)NC(c1ccc2c(c1)OCO2)c1ccc2cccnc2c1O (stereo not given)", "HS 578T breast", "NO"),
]

----------
Test system: UACC-62 melanoma
Test: NCI-60 one-dose screen, 48 h (100 = growth as untreated, 0 = no growth, -100 = all killed)
Conditions: 10 µM unless noted
Compounds without any hit were thinned out: in the full panel of roughly 83,000, 20% have a hit.
Some molecules, each annotated with its measured growth.

# SMILES CODE, UNIT TEXT, growth
rows = [
    ("CCOC(=O)c1c2c(n3ccc(C)cc13)C(=O)c1ccccc1C2=O", "%", 92.6),
    ("C=C(C)[C@@H]1CC[C@]2(C(=O)O)CC[C@]3(C)[C@H](CC[C@@H]4[C@@]5(C)C[C@@H](Cc6cn(CCO[C@@H]7O[C@H](COC(C)=O)[C@H](OC(C)=O)[C@H](OC(C)=O)[C@H]7OC(C)=O)nn6)[C@H](O)C(C)(C)[C@@H]5CC[C@]43C)[C@@H]12", "%", 63.7),
    ("COc1ccc(C2=Nc3c/c(=C\\c4c(O)[nH]c5ccc(Cl)cc45)ccc3=N2)cc1", "%", 48.1),
]

----------
Test system: M14 melanoma
Test: NCI-60 one-dose screen, 48 h
Details: 10 µM unless noted
Procedure: Growth inhibition of the M14 human tumor cell line is measured as a screen for anti-cancer activity. Cells are grown in 96 well plates and exposed to the test compound for 48 hours. Compounds are tested at a single concentration, which is 10^-5 M for most compounds. The reported endpoint is percent growth (GI% or GIPRCNT), where numbers from 0 - 100% represent growth inhibition, and numbers from -100% - 0 represent cell death. For example, a value of 40 represents 60% growth inhibition. […]
About 83,000 compounds went through this panel and 20% of them were active in at least one assay; those are over-represented in the sample as a whole. Calls of active or inactive are those of the source. How the source made its calls: active means growth percent below 10; inactive means the rest.
Classes used: active, inactive

# MOLECULE, LABEL VALUE
records = [
    ("COc1ccc(/C=N/C2=C(C#N)C(c3cccc(Cl)c3)c3c(ccc4ccccc34)O2)cc1 (stereo not drawn)", "inactive"),
    ("CC(C)=NNc1ccccn1", "inactive"),
    ("CCN(CC)CCSc1nc(-c2ccccc2)c(C#N)c(=O)[nH]1", "inactive"),
    ("CC(=O)[C@@H]1CCC=C2CC[C@]3(C)[C@@H](CC[C@@H]4[C@@]5(C)CCCNC(C)(C)[C@@H]5CC[C@]43C)[C@H]21", "active"),
    ("Cc1c(-c2nc3ccc(F)cc3c(=O)[nH]2)c2ccccc2n1C", "inactive"),
    ("O=C1N[C@@H]2NC(=[N+]3CCOCC3)N[C@@H]2N1", "inactive"),
    ("Fc1ccc2[nH]cc(-c3nonc3-c3c[nH]c4ccc(Br)cc34)c2c1", "active"),
    ("CC1=C(CCC(C)N(C)Cc2ccc(OCCCN3CCCC3)cc2)C(C)(C)CCC1 (stereo not drawn)", "active"),
    ("CS(=O)(=O)Nc1cc(-c2ccc3ncnc(Nc4c(Cl)ccc5c4OCO5)c3c2)cnc1Cl", "active"),
    ("CN1CCN(C(=O)c2ccc(NC(=O)Nc3ccc(-c4nc(N5CCOCC5)c5cccn5n4)cc3)cc2)CC1", "active"),
    ("N#CC1=C(N)Oc2c(sc3c(Br)cccc23)C1c1ccc(F)cc1 (stereo not drawn)", "active"),
    ("CNc1nc(S(=O)c2ccc(C#N)cc2)nc2ccccc12 (stereo not drawn)", "inactive"),
    ("COc1ccc(OC)c(C(=O)/C=C/c2cc3c(c(OC)c2OC)OCO3)c1", "inactive"),
    ("O=C(c1cc2ccccc2o1)c1nn(-c2ccccc2)/c(=N/N=Cc2cn(-c3ccccc3)nc2-c2cc3ccccc3oc2=O)s1", "inactive"),
    ("CCSc1nc(NC)c2cc(-c3ccc(C(F)(F)F)cc3)ccc2n1", "inactive"),
    ("Nc1ncnc2c1N=C(c1ccc3c(c1)OCO3)CC(c1cccc(Nc3ccnc4cc(Cl)ccc34)c1)N2 (stereo not drawn)", "inactive"),
    ("Cc1nc(N2CCOCC2)sc1S(N)(=O)=O", "inactive"),
    ("CN1C(=O)/C(=C/c2cn(-c3ccccc3)nc2-c2ccccc2)SC1=S", "inactive"),
    ("CC(=O)OC[C@]12CCC(C)(C)C[C@H]1[C@@]1(O)[C@H](O)C[C@@H]3[C@@]4(C)CCCNC(C)(C)[C@@H]4CC[C@@]3(C)[C@]1(C)CC2", "inactive"),
    ("O=C1N(Cc2ccccc2Cl)c2ccccc2C12NN=C(c1cccc(Cl)c1)S2 (stereo not drawn)", "active"),
    ("O=C1c2ccc3c4ccc5c6c(ccc(c7ccc(c2c37)C(=O)N1CCC[P+](c1ccccc1)(c1ccccc1)c1ccccc1)c64)C(=O)N(CCC[P+](c1ccccc1)(c1ccccc1)c1ccccc1)C5=O", "inactive"),
    ("COc1cc2c(c(OC)c1OC)CCC(c1cccc(C(=O)Nc3cccc(Br)c3)c1)O2 (stereo not drawn)", "inactive"),
    ("CN([O-])c1nc(N(C)[O-])nc(N2CCOCC2)n1.CN([O-])c1nc(N(C)[OH2+])nc(N2CCOCC2)n1.[Fe+3]", "inactive"),
    ("COC(=O)c1c2c(c(C)[n+]([O-])c1C)C(=O)C=C(NCc1ccc(Br)cc1)C2=O", "active"),
    ("O=C(Cn1c(=O)sc2nc3ccccc3nc21)Nc1ncc(Cc2cccc(Cl)c2Cl)s1", "inactive"),
    ("Cn1c(=O)c2c(nc(NC3=NS(=O)(=O)c4ccccc43)n2CC(=O)N2CCc3ccccc32)n(C)c1=O", "inactive"),
    ("COc1ccc(-c2ccc3cnc4sc(-c5ccc(OC)cc5)nc4c3n2)cc1", "inactive"),
    ("CC(C)(C)c1cc(-c2nc3ccc(N4CCN(S(C)(=O)=O)CC4)cc3[nH]2)cc(C(C)(C)C)c1O", "inactive"),
    ("O=[N+]([O-])/C(=C/C=C/c1ccccc1)c1ccccc1", "inactive"),
    ("N#CC1CCc2c(c(-c3cn[nH]c3C(F)(F)F)nc3c(F)cc4[nH]ncc4c23)C1 (stereo not drawn)", "inactive"),
    ("CCOC(=O)c1cn2ncnc(Oc3ccc(NC(=O)NC4CCCCC4)c(Cl)c3)c2c1C", "inactive"),
    ("Cc1cc2c(O)c(-c3cc(Cl)ccc3Cl)c3sc(=O)oc3c2cc1C", "inactive"),
    ("CCN(CC)CCOc1ccc(-c2c(-c3ccccc3)c(=O)oc3ccccc23)cc1", "inactive"),
    ("COc1ccc2[nH]cc(-c3nc(-c4c[nH]c5ccncc45)cs3)c2c1", "active"),
    ("CN1CCN(Cc2ccc3c(NNC(=O)c4ccccc4)nc4cc(F)ccc4n23)CC1", "active"),
    ("CC(C)(C)n1cc(-c2ccnc(NCCCNS(=O)(=O)c3ccc(F)cc3)c2)c(-c2cccc(F)c2)n1", "inactive"),
    ("N#C/C(=C\\c1ccc(Br)cc1)n1nnc2ccc(F)cc21", "active"),
    ("O=C1c2cccc3cccc(c23)C(=O)N1N1C(=O)c2cccc3c(N4CCOCC4)ccc(c23)C1=O", "inactive"),
]
